study system: Sigma non-opioid intracellular receptor 1 (Homo sapiens, UniProt Q99720)
Sequence (Q99720 whole entry): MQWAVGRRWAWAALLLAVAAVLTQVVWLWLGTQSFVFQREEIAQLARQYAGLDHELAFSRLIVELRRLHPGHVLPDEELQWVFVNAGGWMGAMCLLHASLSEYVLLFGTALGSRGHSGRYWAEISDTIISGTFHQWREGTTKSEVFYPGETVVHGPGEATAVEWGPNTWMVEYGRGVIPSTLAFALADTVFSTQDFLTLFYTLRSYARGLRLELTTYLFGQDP
assay remarks: Binding affinity to sigma 1 receptor (unknown origin)
endpoint name: Ki

Query string: # value lookup — system Sigma non-opioid intracellular receptor 1 (Homo sapiens, UniProt Q99720), readout Ki, item CC[Si](C#Cc1cccc2c1OC(C(F)(F)F)C([N+](=O)[O-])=C2)(CC)CC (racemic)
Result string: 6.4 µM

----------
IC50: recorded values
study system: P2Y purinoceptor 6 (Mus musculus)
assay remarks: Antagonist activity at mouse P2Y6R expressed in human 1321N1 cells assessed as inhibition of […] calcium mobilization by FLIPR assay
Give a bare numeral; the unit µM is implied.

Guide cases for IC50, answers given:
molecule	IC50 (µM)
O=[N+]([O-])C1=Cc2cc(Cl)ccc2OC1C(F)(F)F (racemic)	30.8
O=[N+]([O-])C1=Cc2cccc(I)c2OC1C(F)(F)F (racemic)	17.6
CC[Si](C#Cc1ccc2c(c1)C=C([N+](=O)[O-])C(C(F)(F)F)O2)(CC)CC (racemic)	4.94

Query string: # value lookup — system P2Y purinoceptor 6 (Mus musculus), readout IC50, item O=[N+]([O-])C1=Cc2cc(F)cc(F)c2OC1C(F)(F)F (racemic)
Result string: 17.8

Query string: # value lookup — system P2Y purinoceptor 6 (Mus musculus), readout IC50, item CC[Si](C#Cc1cccc2c1OC(C(F)(F)F)C([N+](=O)[O-])=C2)(CC)CC (racemic)
Result string: 6.15

----------
Activity: recorded values
Tested on: HEK293
assay remarks: Cytotoxicity against HEK293 cells assessed as reduction in cell viability at 100 uM measured after 24 hrs by MTT assay relative to control
Type: toxicity, cell-based
condition summary: human, hek293, 24 h
Give a bare numeral; the unit % is implied.

Guide cases for Activity, answers given:
compound	study system	endpoint name	unit tag	measurement
O=C(O)c1ccc(C#Cc2ccc3c(c2)C=C([N+](=O)[O-])C(C(F)(F)F)O3)cc1 (racemic)	HEK293	Activity	%	95
CC[Si](C#Cc1ccc2c(c1)C=C([N+](=O)[O-])C(C(F)(F)F)O2)(CC)CC (racemic)	HEK293	Activity	%	73

Query string: May I ask what Activity has been recorded for C[Si](C)(C)C#Cc1ccc2c(c1)C=C([N+](=O)[O-])C(C(F)(F)F)O2 (racemic) ?
Result string: 58

Query string: May I ask what Activity has been recorded for CC[Si](C#Cc1cccc2c1OC(C(F)(F)F)C([N+](=O)[O-])=C2)(CC)CC (racemic) ?
Result string: 83

----------
study system: Alpha-2C adrenergic receptor (Homo sapiens, UniProt P18825)
Sequence (P18825 whole entry): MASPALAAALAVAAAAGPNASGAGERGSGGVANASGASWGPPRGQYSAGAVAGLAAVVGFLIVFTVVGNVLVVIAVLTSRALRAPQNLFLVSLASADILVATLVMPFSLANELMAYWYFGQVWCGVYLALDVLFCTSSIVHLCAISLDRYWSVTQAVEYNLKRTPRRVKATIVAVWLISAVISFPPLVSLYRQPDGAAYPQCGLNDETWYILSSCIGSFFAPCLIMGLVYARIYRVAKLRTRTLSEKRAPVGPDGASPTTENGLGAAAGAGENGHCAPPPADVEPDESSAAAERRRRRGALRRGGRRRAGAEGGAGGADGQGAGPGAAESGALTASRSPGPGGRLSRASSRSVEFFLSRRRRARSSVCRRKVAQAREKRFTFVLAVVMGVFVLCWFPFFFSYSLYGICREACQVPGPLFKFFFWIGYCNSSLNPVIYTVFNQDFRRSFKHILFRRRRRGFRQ
endpoint name: Ki (nM)
Give a bare numeral; the unit nM is implied.

Query string: May I ask what Ki has been recorded for CC[Si](C#Cc1cccc2c1OC(C(F)(F)F)C([N+](=O)[O-])=C2)(CC)CC (racemic) ?
Result string: 1100

----------
study system: P2Y purinoceptor 6 (Homo sapiens, UniProt Q15077)
Sequence (Q15077 whole entry): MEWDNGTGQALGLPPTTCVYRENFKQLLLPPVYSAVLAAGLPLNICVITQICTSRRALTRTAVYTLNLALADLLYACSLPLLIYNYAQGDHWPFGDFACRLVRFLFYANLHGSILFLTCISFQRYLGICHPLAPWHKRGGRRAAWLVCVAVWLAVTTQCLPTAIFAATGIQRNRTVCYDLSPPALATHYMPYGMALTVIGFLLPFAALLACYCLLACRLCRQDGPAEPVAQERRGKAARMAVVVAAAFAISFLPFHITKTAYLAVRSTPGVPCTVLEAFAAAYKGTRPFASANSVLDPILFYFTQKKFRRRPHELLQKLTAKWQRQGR
assay remarks: Antagonist activity at human P2Y6R expressed in human 1321N1 cells assessed as inhibition of […] calcium mobilization by FLIPR assay
Type: cell-based
endpoint name: IC50 (µM)
Give a bare numeral; the unit µM is implied.

Query string: May I ask what IC50 has been recorded for CC[Si](C#Cc1cccc2c1C=C([N+](=O)[O-])C(C(F)(F)F)O2)(CC)CC (racemic) ?
Result string: 4.77

Query string: May I ask what IC50 has been recorded for CC1Oc2ccc(I)cc2C=C1[N+](=O)[O-] (racemic) ?
Result string: 36.8

Query string: May I ask what IC50 has been recorded for O=[N+]([O-])C1=Cc2cc(F)cc(F)c2OC1C(F)(F)F (racemic) ?
Result string: 2.99

Query string: May I ask what IC50 has been recorded for O=[N+]([O-])C1=Cc2cccc(Cl)c2OC1C(F)(F)F (racemic) ?
Result string: 3.69

Query string: May I ask what IC50 has been recorded for O=[N+]([O-])C1=Cc2ccc(Cl)cc2OC1C(F)(F)F (racemic) ?
Result string: 7.98

----------
study system: Beta-3 adrenergic receptor (Homo sapiens)
Sequence (P13945 whole entry): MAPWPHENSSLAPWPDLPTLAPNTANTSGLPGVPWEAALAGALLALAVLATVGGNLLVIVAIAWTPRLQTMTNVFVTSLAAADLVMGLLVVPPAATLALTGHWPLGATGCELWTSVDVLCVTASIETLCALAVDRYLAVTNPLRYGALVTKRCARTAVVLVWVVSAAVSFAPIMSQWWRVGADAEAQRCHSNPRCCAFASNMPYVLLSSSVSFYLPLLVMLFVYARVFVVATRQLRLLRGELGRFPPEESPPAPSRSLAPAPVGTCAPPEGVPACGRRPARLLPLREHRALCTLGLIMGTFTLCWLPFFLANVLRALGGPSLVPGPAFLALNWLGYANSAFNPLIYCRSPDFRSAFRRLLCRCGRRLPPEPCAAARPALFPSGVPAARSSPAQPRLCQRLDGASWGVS
endpoint name: Ki

Query string: May I ask what Ki has been recorded for CC[Si](C#Cc1cccc2c1OC(C(F)(F)F)C([N+](=O)[O-])=C2)(CC)CC (racemic) ?
Result string: 7.3 µM

----------
study system: Sigma intracellular receptor 2 (Homo sapiens, UniProt Q5BJF2)
Sequence (Q5BJF2 whole entry): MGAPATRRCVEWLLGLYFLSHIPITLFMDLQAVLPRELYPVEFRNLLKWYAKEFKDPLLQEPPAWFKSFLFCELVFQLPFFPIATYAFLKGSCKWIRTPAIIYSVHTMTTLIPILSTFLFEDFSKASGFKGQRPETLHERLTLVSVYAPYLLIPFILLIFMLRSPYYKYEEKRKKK
assay remarks: Binding affinity to sigma 2 receptor (unknown origin)
endpoint name: pKi
Bear in mind: pKi is minus log10 of a mol/L concentration; give just that figure.

Query string: # value lookup — system Sigma intracellular receptor 2 (Homo sapiens, UniProt Q5BJF2), readout pKi, item O=[N+]([O-])C1=Cc2cc(F)ccc2OC1C(F)(F)F (racemic)
Result string: 5.07

----------
study system: Histamine H1 receptor (Homo sapiens)
Sequence (P35367 whole entry): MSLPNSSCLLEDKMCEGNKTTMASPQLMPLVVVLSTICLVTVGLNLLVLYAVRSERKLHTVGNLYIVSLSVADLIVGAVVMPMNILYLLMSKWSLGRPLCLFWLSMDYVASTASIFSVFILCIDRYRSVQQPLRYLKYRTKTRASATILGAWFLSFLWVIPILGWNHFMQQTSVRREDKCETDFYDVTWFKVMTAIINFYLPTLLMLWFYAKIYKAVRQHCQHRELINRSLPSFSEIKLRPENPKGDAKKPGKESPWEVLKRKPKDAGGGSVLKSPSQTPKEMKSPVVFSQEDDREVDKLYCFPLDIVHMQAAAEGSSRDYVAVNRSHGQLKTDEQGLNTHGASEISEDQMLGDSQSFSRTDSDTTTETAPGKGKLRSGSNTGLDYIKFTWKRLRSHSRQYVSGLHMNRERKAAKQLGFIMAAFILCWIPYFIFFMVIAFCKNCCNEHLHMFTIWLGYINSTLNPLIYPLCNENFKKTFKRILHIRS
endpoint name: Ki (µM)
Give a bare numeral; the unit µM is implied.

Query string: # value lookup — system Histamine H1 receptor (Homo sapiens), readout Ki, item CC[Si](C#Cc1cccc2c1OC(C(F)(F)F)C([N+](=O)[O-])=C2)(CC)CC (racemic)
Result string: 3.5

----------
IC50: recorded values
study system: UniProt Q15077
assay remarks: Antagonist activity at human P2Y6R expressed in human 1321N1 cells assessed as inhibition of […] calcium mobilization by FLIPR assay
Give a bare numeral; the unit µM is implied.

Guide cases for IC50, answers given:
compound	unit tag	measurement
O=[N+]([O-])C1=Cc2cc(C#Cc3ccc(F)cc3)ccc2OC1C(F)(F)F (racemic)	µM	8.86
O=[N+]([O-])C1=Cc2c(I)cccc2OC1C(F)(F)F (racemic)	µM	13.1
O=[N+]([O-])C1=Cc2c(Cl)cccc2OC1C(F)(F)F (racemic)	µM	15.7
CC[Si](C#Cc1cccc2c1OC(C(F)(F)F)C([N+](=O)[O-])=C2)(CC)CC (racemic)	µM	0.461
O=[N+]([O-])C1=Cc2cc(I)ccc2OC1C1CCC1 (racemic)	µM	33.1

Consider now this further compound.
Query string: May I ask what IC50 has been recorded for O=[N+]([O-])C1=Cc2cc(C#Cc3ccc(Cl)cc3)ccc2OC1C(F)(F)F (racemic) ?
Result string: 5.35

----------
study system: D(3) dopamine receptor (Homo sapiens)
Sequence (P35462 whole entry): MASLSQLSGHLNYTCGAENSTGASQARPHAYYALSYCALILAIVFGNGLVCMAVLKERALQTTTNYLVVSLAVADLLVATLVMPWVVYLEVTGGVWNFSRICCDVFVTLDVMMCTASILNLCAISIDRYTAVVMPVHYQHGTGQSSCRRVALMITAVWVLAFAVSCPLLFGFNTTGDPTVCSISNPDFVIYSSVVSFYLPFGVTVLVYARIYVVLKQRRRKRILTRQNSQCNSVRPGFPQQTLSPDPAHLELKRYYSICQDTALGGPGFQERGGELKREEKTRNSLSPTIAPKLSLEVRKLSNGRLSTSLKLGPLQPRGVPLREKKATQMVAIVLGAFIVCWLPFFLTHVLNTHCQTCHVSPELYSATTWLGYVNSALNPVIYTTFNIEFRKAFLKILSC
endpoint name: Ki (nM)
Give a bare numeral; the unit nM is implied.

Query string: May I ask what Ki has been recorded for O=[N+]([O-])C1=Cc2cc(Cl)ccc2OC1C(F)(F)F (racemic) ?
Result string: 780

----------
study system: P2Y purinoceptor 6 (Mus musculus, UniProt Q9ERK9)
Sequence (Q9ERK9 whole entry): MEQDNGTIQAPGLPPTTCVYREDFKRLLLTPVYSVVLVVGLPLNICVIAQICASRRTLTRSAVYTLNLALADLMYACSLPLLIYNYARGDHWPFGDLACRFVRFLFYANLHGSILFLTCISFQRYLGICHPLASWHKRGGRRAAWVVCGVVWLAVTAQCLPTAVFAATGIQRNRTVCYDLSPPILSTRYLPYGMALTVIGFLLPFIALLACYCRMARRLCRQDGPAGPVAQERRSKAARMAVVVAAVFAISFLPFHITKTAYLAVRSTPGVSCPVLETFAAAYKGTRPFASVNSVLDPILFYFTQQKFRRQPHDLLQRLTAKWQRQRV
assay remarks: Antagonist activity at mouse P2Y6R expressed in human 1321N1 cells assessed as inhibition of […] calcium mobilization by FLIPR assay
Type: cell-based
pIC50: recorded values
Bear in mind: pIC50 is minus log10 of a mol/L concentration; give just that figure.

Guide cases for pIC50, answers given:
molecule	pIC50
O=[N+]([O-])C1=Cc2cc(I)ccc2OC1C(F)(F)F (racemic)	4.54
O=[N+]([O-])C1=Cc2cc(Br)ccc2OC1C(F)(F)F (racemic)	4.69
O=[N+]([O-])C1=Cc2cccc(Cl)c2OC1C(F)(F)F (racemic)	4.82

Query string: May I ask what pIC50 has been recorded for O=[N+]([O-])C1=Cc2cc(F)cc(Br)c2OC1C(F)(F)F (racemic) ?
Result string: 4.84

Query string: May I ask what pIC50 has been recorded for O=[N+]([O-])C1=Cc2cc(C#Cc3ccc(CO)cc3)ccc2OC1C(F)(F)F (racemic) ?
Result string: 4.50

Query string: May I ask what pIC50 has been recorded for O=[N+]([O-])C1=Cc2ccccc2OC1C(F)(F)F (racemic) ?
Result string: 3.73
